Reported pIC50 values are given for each entry in this list.
- measurement-target: CYP2D6 (Homo sapiens)
- Sequence (P10635 whole entry): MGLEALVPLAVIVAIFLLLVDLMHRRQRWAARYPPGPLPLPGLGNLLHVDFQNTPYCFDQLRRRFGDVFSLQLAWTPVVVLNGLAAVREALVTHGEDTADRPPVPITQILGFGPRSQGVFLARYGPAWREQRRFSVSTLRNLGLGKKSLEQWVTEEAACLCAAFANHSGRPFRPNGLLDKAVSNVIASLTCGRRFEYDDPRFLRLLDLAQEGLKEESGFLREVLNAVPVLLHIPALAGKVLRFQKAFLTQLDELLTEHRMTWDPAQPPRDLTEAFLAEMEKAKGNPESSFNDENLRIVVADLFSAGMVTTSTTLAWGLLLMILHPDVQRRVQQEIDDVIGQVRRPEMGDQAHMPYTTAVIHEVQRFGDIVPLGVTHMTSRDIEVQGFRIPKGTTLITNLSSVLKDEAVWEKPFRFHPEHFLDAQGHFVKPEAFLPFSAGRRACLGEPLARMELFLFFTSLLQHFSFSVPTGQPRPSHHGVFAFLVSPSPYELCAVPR
- test-description: in vitro
- experimental-conditions: pH 7.4, probe coumarin substrate (not named)
pIC50: −log10 of the molar value.

[
  {
    "molecule": "Cc1cc(CNc2nccc(Nc3cc(C4CC4)[nH]n3)n2)on1 [Example 9]",
    "pIC50": "< 5.00"
  }
]

Request: Complete the entry with pIC50 for Cc1cc(CNc2ncc(Cl)c(Nc3cc(C)[nH]n3)n2)on1 [(b)]
Result: < 5.00

###

- measurement-target: FGFR1 IIIc (Homo sapiens)
- Construct: host or cells: Cos-1
- Sequence (P11362 22-822): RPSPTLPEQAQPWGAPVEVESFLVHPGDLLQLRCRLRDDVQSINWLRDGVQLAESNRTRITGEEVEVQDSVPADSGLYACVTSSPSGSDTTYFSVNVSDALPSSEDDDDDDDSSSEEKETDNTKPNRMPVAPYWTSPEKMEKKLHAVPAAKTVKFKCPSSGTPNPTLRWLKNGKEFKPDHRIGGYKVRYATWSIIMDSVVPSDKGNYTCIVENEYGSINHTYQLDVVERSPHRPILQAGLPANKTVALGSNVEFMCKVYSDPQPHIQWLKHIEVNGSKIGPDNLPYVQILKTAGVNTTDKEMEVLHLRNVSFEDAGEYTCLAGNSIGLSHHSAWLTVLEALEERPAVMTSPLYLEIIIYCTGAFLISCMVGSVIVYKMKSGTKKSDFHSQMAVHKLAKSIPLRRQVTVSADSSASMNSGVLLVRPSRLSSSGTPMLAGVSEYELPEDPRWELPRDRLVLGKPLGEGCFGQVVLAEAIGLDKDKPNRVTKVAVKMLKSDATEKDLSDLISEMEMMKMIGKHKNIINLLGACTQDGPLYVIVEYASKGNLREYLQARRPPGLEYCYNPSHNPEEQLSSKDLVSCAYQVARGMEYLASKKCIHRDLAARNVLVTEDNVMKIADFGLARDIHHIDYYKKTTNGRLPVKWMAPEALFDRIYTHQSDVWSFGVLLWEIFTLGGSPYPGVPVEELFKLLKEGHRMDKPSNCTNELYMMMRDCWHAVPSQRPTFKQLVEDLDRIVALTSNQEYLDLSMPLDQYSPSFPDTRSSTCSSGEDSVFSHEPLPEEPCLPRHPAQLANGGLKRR
- test-description: Cell based inhibition of transiently expressed FGFR1 IIIc phosphorylation via use of ECHO technology (Cos-1 cells)
- experimental-conditions: Cos-1 cells, phospho-FGFR1, ECHO dosing; upper bound of bin; read-out: IC50
- From the text: This assay is designed to detect inhibitors of transiently expressed FGFR1 phosphorylation by antibody staining of fixed cells detected using ArrayScan technology. To undertake the assay, Cos-1 cells were harvested at 90-95% confluence for cell transfection. […] The harvested Cos-1 cells are counted using a coulter counter and diluted further with 1% FCS/DMEM to 2.5×10^5 cells/ml. […] The plates were read on an Arrayscan (Cellomics).
measured-attribute: IC50

[
  {
    "compound": "COc1ncc(CCc2cc(Nc3ccnc(NCc4cc(C)no4)n3)n[nH]2)s1",
    "IC50": "< 10000 nM"
  },
  {
    "compound": "COc1cccc(CCc2cc(Nc3ccnc(NCc4cc(C5CC5)no4)n3)n[nH]2)c1",
    "IC50": "< 200 nM"
  },
  {
    "compound": "COc1cc(COc2cc(Nc3ccnc(NCc4cc(C)no4)n3)n[nH]2)c(F)cn1",
    "IC50": "< 1000 nM"
  },
  {
    "compound": "CC(C)Cc1cc(Nc2ccnc(NCc3cc(C4CC4)no3)n2)n[nH]1",
    "IC50": "< 200 nM"
  },
  {
    "compound": "c1ccc(COc2cc(Nc3ccnc(NCc4cc(C5CC5)no4)n3)n[nH]2)cc1",
    "IC50": "< 200 nM"
  },
  {
    "compound": "CCOCCCc1cc(Nc2ccnc(NCc3cc(C(N)=O)no3)n2)[nH]n1",
    "IC50": "< 30000 nM"
  },
  {
    "compound": "COc1cc(C)cc(COc2cc(Nc3ccnc(NCc4cc(C)no4)n3)n[nH]2)c1",
    "IC50": "< 200 nM"
  },
  {
    "compound": "Cc1cc(CNc2nccc(Nc3cc(CCc4cccc(N)c4)[nH]n3)n2)on1",
    "IC50": "< 1000 nM"
  },
  {
    "compound": "COc1cc(OC)cc(OCc2cc(Nc3ccnc(NCc4cc(C)no4)n3)n[nH]2)c1",
    "IC50": "< 1000 nM"
  },
  {
    "compound": "CNC(=O)c1cc(CNc2nccc(Nc3cc(CCc4cccc(O)c4)n[nH]3)n2)on1",
    "IC50": "< 10000 nM"
  }
]

Request: Quickly give me recorded IC50 for CCCc1cc(Nc2ccnc(NCc3cc(C)no3)n2)n[nH]1
Result: < 200 nM

Request: Respond only with IC50 recorded for CNC(=O)c1cc(CCc2cc(Nc3ccnc(NCc4cc(C)no4)n3)n[nH]2)cc(OC)c1
Result: < 1000 nM

Request: Supply IC50 value. Item: CC(C)Oc1cc(Nc2ccnc(NCc3cc(C4CCCO4)no3)n2)[nH]n1 (centres unmarked)
Result: < 1000 nM
